Provide the reported Ki of each item.
biological target: cloned human M4 muscarinic receptor (Homo sapiens); assay: Muscarinic binding activity, 3H-QNB displacement, M4; conditions: membranes from stably transfected CHO cells, 3H-QNB 100-200 pM, 25° C., 90 minutes
Sequence (P08173 whole entry): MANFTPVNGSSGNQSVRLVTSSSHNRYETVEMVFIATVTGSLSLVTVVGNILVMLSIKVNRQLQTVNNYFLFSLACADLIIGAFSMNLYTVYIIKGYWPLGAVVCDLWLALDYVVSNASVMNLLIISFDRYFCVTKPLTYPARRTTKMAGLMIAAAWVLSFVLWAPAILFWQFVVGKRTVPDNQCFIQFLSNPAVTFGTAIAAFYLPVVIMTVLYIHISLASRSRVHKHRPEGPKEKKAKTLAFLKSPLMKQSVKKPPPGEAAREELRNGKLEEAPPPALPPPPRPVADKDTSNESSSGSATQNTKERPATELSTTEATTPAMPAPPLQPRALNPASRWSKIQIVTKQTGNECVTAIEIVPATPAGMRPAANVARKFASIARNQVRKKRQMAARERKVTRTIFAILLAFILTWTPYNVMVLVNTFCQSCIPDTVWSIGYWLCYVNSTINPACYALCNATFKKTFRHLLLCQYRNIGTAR

Each compound below has a reported value. Please supply its Ki.
1. CC(C)Oc1ccc(C2CC23CCN(C2CCN(C(=O)c4cccc(Cl)c4N)CC2)CC3)cc1 (stereo not shown)
2. Cc1c(Cl)cccc1C(=O)N1CCC(N2CCC3(CC2)CC3(C)c2ccc(OC(C)C)cc2)CC1 (stereo not shown)
3. CC(C)Oc1ccc(C2(C)CC23CCN(C2CCN(C(=O)c4cccc(Cl)c4N)CC2)CC3)cc1 (stereo not shown)
4. CC(C)Oc1ccc(C2CC23CCN(C2CCN(C(=O)c4cccc(Cl)c4Cl)CC2)CC3)cc1 (stereo not shown)
5. CC(C)Oc1ccc(C2C(Cl)(Cl)C23CCN(C2CCN(C(=O)c4cccc(F)c4N)CC2)CC3)cc1 (stereo not shown)
6. Cc1cccc(C(=O)N2CCC(N3CCC4(CC3)C(c3ccc(OC(C)C)cc3)C4(Cl)Cl)CC2)c1Cl (stereo not shown)
7. CC(C)Oc1ccc(C2C(Cl)(Cl)C23CCN(C2CCN(C(=O)c4cccc(Cl)c4N)CC2)CC3)cc1 (stereo not shown)

Completion:
1. > 1000 nM
2. 272 nM
3. 151 nM
4. > 1000 nM
5. > 1000 nM
6. > 1000 nM
7. > 1000 nM
